These entries and their values trace back to paper PMC4336329.

Target: human ether-à-go-go-related gene (hERG) potassium channel (human, UniProt Q12809)
Sequence (Q12809 whole entry, looked up): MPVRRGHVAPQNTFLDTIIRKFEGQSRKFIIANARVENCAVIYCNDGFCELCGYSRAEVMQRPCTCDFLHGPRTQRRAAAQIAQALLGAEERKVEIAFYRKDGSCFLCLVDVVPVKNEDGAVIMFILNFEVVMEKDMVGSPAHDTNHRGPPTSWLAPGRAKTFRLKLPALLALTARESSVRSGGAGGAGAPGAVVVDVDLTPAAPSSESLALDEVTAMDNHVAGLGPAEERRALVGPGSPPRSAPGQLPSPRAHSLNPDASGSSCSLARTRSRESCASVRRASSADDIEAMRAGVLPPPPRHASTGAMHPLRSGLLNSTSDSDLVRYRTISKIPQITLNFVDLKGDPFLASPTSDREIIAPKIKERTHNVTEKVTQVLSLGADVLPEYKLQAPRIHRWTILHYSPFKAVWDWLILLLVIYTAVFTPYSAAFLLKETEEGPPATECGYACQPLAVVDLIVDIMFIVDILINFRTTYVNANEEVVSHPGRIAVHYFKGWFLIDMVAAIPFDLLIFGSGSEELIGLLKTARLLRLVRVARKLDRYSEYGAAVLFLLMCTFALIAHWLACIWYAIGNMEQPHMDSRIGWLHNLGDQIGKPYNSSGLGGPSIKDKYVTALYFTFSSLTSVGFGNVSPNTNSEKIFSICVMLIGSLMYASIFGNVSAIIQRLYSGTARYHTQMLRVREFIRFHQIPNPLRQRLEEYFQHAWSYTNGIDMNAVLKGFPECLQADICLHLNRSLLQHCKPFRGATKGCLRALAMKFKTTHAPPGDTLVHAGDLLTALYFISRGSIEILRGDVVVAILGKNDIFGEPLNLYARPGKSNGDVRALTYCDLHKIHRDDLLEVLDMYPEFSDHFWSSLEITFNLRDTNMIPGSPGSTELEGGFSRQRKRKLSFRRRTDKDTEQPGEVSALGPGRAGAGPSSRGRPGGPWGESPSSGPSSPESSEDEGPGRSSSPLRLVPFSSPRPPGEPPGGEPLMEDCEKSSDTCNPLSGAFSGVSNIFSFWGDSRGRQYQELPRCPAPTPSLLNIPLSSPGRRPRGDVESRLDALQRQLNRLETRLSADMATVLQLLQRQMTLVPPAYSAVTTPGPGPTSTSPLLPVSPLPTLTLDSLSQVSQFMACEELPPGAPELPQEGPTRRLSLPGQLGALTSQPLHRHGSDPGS
Assay: primary screen, population patch clamp on CHO cells stably expressing hERG; higher = less effect of the substance
Excerpt: Briefly, Chinese hamster ovary (CHO) cells stably expressing the hERG channel were dislodged from tissue culture flasks and dispensed into PPC plates. […] Small molecule effects on hERG current density were quantified by […].
Screen size: about 310,000 compounds; about 2,200 (0.71%) showed an effect of 50% or more. The effect is printed as a negative number. The sample holds strong results, similar compounds and a random draw of the others, so the mix is not that of the screen.
Here the recorded hERG current change (%, negative = inhibition) at 1uM is given for each entry.
Output spec: scalar in %, unitless text.

Guide cases for hERG current change (%, negative = inhibition) at 1uM, answers given:
CCC(C)(C)NC(=O)C(c1ccco1)N(C(=O)Cn1nnc2ccccc21)c1ccc2c(c1)OCO2 (stereo not shown) : 13.9
COc1ccccc1C(=O)NCC(=O)NC(C)c1ccc(-n2ccnc2)cc1 (stereo not shown) : -2.86
CCCC(=O)Nc1c(-c2cccs2)c(=O)c2ccccc2n1C : 5.25

Field: hERG current change (%, negative = inhibition) at 1uM (human ether-à-go-go-related gene (hERG) potassium channel (human, UniProt Q12809)). Entry: OCCC1CN(Cc2cccc(-c3ccco3)c2)CCN1Cc1ccsc1 (stereo not shown)
-17.3

For human ether-à-go-go-related gene (hERG) potassium channel (human, UniProt Q12809), provide hERG current change (%, negative = inhibition) at 1uM of `COc1ccc(CNC(=O)CSc2nnc3c(n2)[nH]c2ccc(OC)cc23)cc1` please.
11.1

What value of hERG current change (%, negative = inhibition) at 1uM on human ether-à-go-go-related gene (hERG) potassium channel (human, UniProt Q12809) does `CCc1nn(CC(=O)NCCCN2CCc3ccccc3C2)c(=O)c2cc3sccc3n12` have?
-53.8

Give recorded hERG current change (%, negative = inhibition) at 1uM with human ether-à-go-go-related gene (hERG) potassium channel (human, UniProt Q12809) for the following molecule: CC(=O)OC1CC[C@]2(C#N)[C@H]3CC[C@]4(C)[C@H](C5C=CC(=O)O5)CCC4(O)C3CCC2(O)C1 (stereo partly shown)
12.9

Can you look up hERG current change (%, negative = inhibition) at 1uM on human ether-à-go-go-related gene (hERG) potassium channel (human, UniProt Q12809) for N=c1c(C(=O)NCc2ccc(F)cc2)cc2c(=O)n3ccccc3nc2n1CC1CCCO1 (stereo not shown) ?
-85.3

Item CCN(CC1CCCO1)C(=O)c1cc(COc2ccc(F)cc2F)on1 (stereo not shown) with human ether-à-go-go-related gene (hERG) potassium channel (human, UniProt Q12809) - hERG current change (%, negative = inhibition) at 1uM?
2.73
